# Tested on: BaF3 ETV6-TRKB
# EXPERIMENT: BaF3 cell proliferation, CCK-8 assay
# CONDITIONS: Mus musculus, BaF3, 72 h, read-out: IC50 (nM ± SD) WT ETV6-TRKB
METRIC NAME: IC50 (nM)
One number for each entry, in nM.

CHEM SMILES | REPORTED MEASUREMENT
C[C@@H]1CCc2ncc(F)cc2[C@H]2CCCN2c2ccn3ncc(c3n2)C(=O)N1 | 4.9
O=C(Nc1cnn2ccc(N3CCC[C@@H]3c3cc(F)ccc3F)nc12)N1CC[C@H](O)C1 | 24
Cc1c(C#Cc2cnc3cnc(-c4ccc(N)cc4)cn23)cccc1C(=O)Nc1cc(CN2CCN(C)CC2)cc(C(C)C)c1 | 23.1
CN1CCN(c2ccc(C(=O)Nc3n[nH]c4ccc(Cc5cc(F)cc(F)c5)cc34)c(NC3CCOCC3)c2)CC1 | 8

Incoming: Field request: IC50 | item: C[C@H]1CNC(=O)c2cnn3ccc(nc23)N[C@H](C)c2cc(F)ccc2O1
Outgoing: 2.3
